Listed here: items and their measured inhibition in vivo at 10 mg/kg.
Tested on: Rattus norvegicus
Test: In vivo percent inhibition of angiotensin I pressor response 15 min after 10mg/kg, iv administration in spontaneously hypertensive rat (SHR)
Assay type: functional
Details: 0.25 h
Give a bare numeral; the unit % is implied.

// known answers, use as guide
CC(CC(=O)O)CC(=O)N1c2ccccc2CC1C(=O)O (stereo unspecified): 20
CC(CCC(=O)N1c2ccccc2CC1C(=O)O)C(=O)O (stereo unspecified): 41
O=C(O)C(CCC(=O)N1c2ccccc2CC1C(=O)O)CCc1ccccc1 (stereo unspecified): 75
CCOC(=O)C1Cc2ccccc2N1C(=O)C(C)CC(C)C(=O)O (stereo unspecified): 84
CC(CCC(N)=O)C(=O)N1c2ccccc2CC1C(=O)O (stereo unspecified): 71

Request: Retrieve inhibition in vivo at 10 mg/kg on Rattus norvegicus; query CCOC(=O)C1Cc2ccccc2N1C(=O)CCC(C)C(=O)O (stereo unspecified)
Response: 11
